Tested on: 485176-168-R4-J1-PDC complex spheroid growth
Protocol Details: Anticancer human tumor 485176-168-R4-J1-PDC patient-derived pancreatic adenocarcinoma cell line growth inhibition [RAS]
Test Conditions: second compound 1 µM; first compound 0.1 µM; stronger effect = lower value
Listed here are compounds together with their documented viability, T/C.

- Compound: "CC(Nc1ccc2c(c1)OCCn1cc(N3C(=O)OCC3C(F)F)nc1-2)C(N)=O (configuration not stated) + C#Cc1c(F)ccc2cc(O)cc(-c3ncc4c(N5CC6CCC(C5)N6)nc(OCC56CCCN5CC(F)C6)nc4c3F)c12"
  viability, T/C (%): 81.1
- Compound: "Cc1nc(N2CCC3(CC2)COC(C)C3N)c(CO)nc1Sc1ccnc(N)c1Cl (configuration not stated) + C#Cc1c(F)ccc2cc(O)cc(-c3ncc4c(N5CC6CCC(C5)N6)nc(OCC56CCCN5CC(F)C6)nc4c3F)c12"
  viability, T/C (%): 102
- Compound: "C=CC(=O)Nc1cc(Nc2nccc(-c3cn(C)c4ccccc34)n2)c(OC)cc1N(C)CCN(C)C + C=CC(=O)N1CCN(c2nc(OCC3CCCN3C)nc3c(F)c(-c4nc(N)cc(C)c4C(F)(F)F)c(Cl)cc23)C(C)C1"
  viability, T/C (%): 81
- Compound: "C=CC(=O)Nc1cc(Nc2nccc(-c3cn(C)c4ccccc34)n2)c(OC)cc1N(C)CCN(C)C + C#Cc1c(F)ccc2cc(O)cc(-c3ncc4c(N5CC6CCC(C5)N6)nc(OCC56CCCN5CC(F)C6)nc4c3F)c12"
  viability, T/C (%): 96.1
- Compound: "CC(C)NCC(C(=O)N1CCN(c2ncnc3c2C(C)CC3O)CC1)c1ccc(Cl)cc1 (configuration not stated) + C=CC(=O)N1CCN(c2nc(OCC3CCCN3C)nc3c(F)c(-c4nc(N)cc(C)c4C(F)(F)F)c(Cl)cc23)C(C)C1"
  viability, T/C (%): 93.9
- Compound: "CC(=O)OC12COC1CC(O)C1(C)C(=O)C(O)C3=C(C)C(OC(=O)C(O)C(NC(=O)OC(C)(C)C)c4ccccc4)CC(O)(C(OC(=O)c4ccccc4)C21)C3(C)C (configuration not stated) + C#Cc1c(F)ccc2cc(O)cc(-c3ncc4c(N5CC6CCC(C5)N6)nc(OCC56CCCN5CC(F)C6)nc4c3F)c12"
  viability, T/C (%): 15.8
- Compound: "CC1(O)CCCC1n1c(=O)c(C(F)F)cc2cnc(NC3CCN(S(C)(=O)=O)CC3)nc21 (configuration not stated) + C=CC(=O)N1CCN(c2nc(OCC3CCCN3C)nc3c(F)c(-c4nc(N)cc(C)c4C(F)(F)F)c(Cl)cc23)C(C)C1"
  viability, T/C (%): 86.8
- Compound: "C=CC(=O)N1CCN(c2nc(OCC3CCCN3C)nc3c(F)c(-c4nc(N)cc(C)c4C(F)(F)F)c(Cl)cc23)C(C)C1 (configuration not stated) + C#Cc1c(F)ccc2cc(O)cc(-c3ncc4c(N5CC6CCC(C5)N6)nc(OCC56CCCN5CC(F)C6)nc4c3F)c12"
  viability, T/C (%): 101
- Compound: "Nc1ccn(C2OC(CO)C(O)C2(F)F)c(=O)n1 (configuration not stated) + C=CC(=O)N1CCN(c2nc(OCC3CCCN3C)nc3c(F)c(-c4nc(N)cc(C)c4C(F)(F)F)c(Cl)cc23)C(C)C1"
  viability, T/C (%): 8.41
- Compound: "O=C(c1ccc(F)c(F)c1Nc1ccc(I)cc1F)N1CC(O)([C@@H]2CCCCN2)C1 + C#Cc1c(F)ccc2cc(O)cc(-c3ncc4c(N5CC6CCC(C5)N6)nc(OCC56CCCN5CC(F)C6)nc4c3F)c12"
  viability, T/C (%): 47.3
- Compound: "C[C@@H](NC(=O)c1ncnc(N)c1Cl)c1ncc(C(=O)Nc2cc(C(F)(F)F)c(Cl)cn2)s1 + C=CC(=O)N1CCN(c2nc(OCC3CCCN3C)nc3c(F)c(-c4nc(N)cc(C)c4C(F)(F)F)c(Cl)cc23)C(C)C1"
  viability, T/C (%): 95.7
- Compound: "CCC(CC)c1cc(NC2CCC(N)C2)n2nccc2n1 (configuration not stated) + C=CC(=O)N1CCN(c2nc(OCC3CCCN3C)nc3c(F)c(-c4nc(N)cc(C)c4C(F)(F)F)c(Cl)cc23)C(C)C1"
  viability, T/C (%): 110

###

System: 485176-168-R4-J1-PDC complex spheroid growth
Protocol Details: Anticancer human tumor 485176-168-R4-J1-PDC cell line growth inhibition [RAS];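 also: spheroids exposed to compounds for seven days before readout; luminescence viability expressed relative to DMSO vehicle wells set as 100%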
Test Conditions: second compound 1 µM; first compound 0.0316 µM; stronger effect = lower value
Parameter Measured: viability, T/C (%)

- Compound: "CCN1CCN(Cc2ccc(Nc3ncc(F)c(-c4cc(F)c5nc(C)n(C(C)C)c5c4)n3)nc2)CC1 + C=CC(=O)N1CCN(c2nc(OCC3CCCN3C)nc3c(F)c(-c4nc(N)cc(C)c4C(F)(F)F)c(Cl)cc23)C(C)C1"
  Target Desc: "485176-168-R4-J1-PDC complex spheroid growth"
  Parameter Measured: "viability, T/C"
  Numeric Value: 111
- Compound: "C=CC(=O)Nc1cc(Nc2nccc(-c3cn(C)c4ccccc34)n2)c(OC)cc1N(C)CCN(C)C + C#Cc1c(F)ccc2cc(O)cc(-c3ncc4c(N5CC6CCC(C5)N6)nc(OCC56CCCN5CC(F)C6)nc4c3F)c12"
  Target Desc: "485176-168-R4-J1-PDC complex spheroid growth"
  Parameter Measured: "viability, T/C"
  Numeric Value: 91
- Compound: "CC(Nc1ccc2c(c1)OCCn1cc(N3C(=O)OCC3C(F)F)nc1-2)C(N)=O (stereo not given) + C=CC(=O)N1CCN(c2nc(OCC3CCCN3C)nc3c(F)c(-c4nc(N)cc(C)c4C(F)(F)F)c(Cl)cc23)C(C)C1"
  Target Desc: "485176-168-R4-J1-PDC complex spheroid growth"
  Parameter Measured: "viability, T/C"
  Numeric Value: 85.9
- Compound: "CC1(O)CCCC1n1c(=O)c(C(F)F)cc2cnc(NC3CCN(S(C)(=O)=O)CC3)nc21 (stereo not given) + C=CC(=O)N1CCN(c2nc(OCC3CCCN3C)nc3c(F)c(-c4nc(N)cc(C)c4C(F)(F)F)c(Cl)cc23)C(C)C1"
  Target Desc: "485176-168-R4-J1-PDC complex spheroid growth"
  Parameter Measured: "viability, T/C"
  Numeric Value: 104
- Compound: "O=C(c1ccc(F)c(F)c1Nc1ccc(I)cc1F)N1CC(O)([C@@H]2CCCCN2)C1 + C=CC(=O)N1CCN(c2nc(OCC3CCCN3C)nc3c(F)c(-c4nc(N)cc(C)c4C(F)(F)F)c(Cl)cc23)C(C)C1"
  Target Desc: "485176-168-R4-J1-PDC complex spheroid growth"
  Parameter Measured: "viability, T/C"
  Numeric Value: 58
- Compound: "C=CC(=O)Nc1cc(Nc2nccc(-c3cn(C)c4ccccc34)n2)c(OC)cc1N(C)CCN(C)C + C=CC(=O)N1CCN(c2nc(OCC3CCCN3C)nc3c(F)c(-c4nc(N)cc(C)c4C(F)(F)F)c(Cl)cc23)C(C)C1"
  Target Desc: "485176-168-R4-J1-PDC complex spheroid growth"
  Parameter Measured: "viability, T/C"
  Numeric Value: 100
- Compound: "Cc1nc(N2CCC3(CC2)COC(C)C3N)c(CO)nc1Sc1ccnc(N)c1Cl (stereo not given) + C#Cc1c(F)ccc2cc(O)cc(-c3ncc4c(N5CC6CCC(C5)N6)nc(OCC56CCCN5CC(F)C6)nc4c3F)c12"
  Target Desc: "485176-168-R4-J1-PDC complex spheroid growth"
  Parameter Measured: "viability, T/C"
  Numeric Value: 85.5
- Compound: "Nc1ccn(C2OC(CO)C(O)C2(F)F)c(=O)n1 (stereo not given) + C=CC(=O)N1CCN(c2nc(OCC3CCCN3C)nc3c(F)c(-c4nc(N)cc(C)c4C(F)(F)F)c(Cl)cc23)C(C)C1"
  Target Desc: "485176-168-R4-J1-PDC complex spheroid growth"
  Parameter Measured: "viability, T/C"
  Numeric Value: 13
- Compound: "Cc1nc(N2CCC3(CC2)COC(C)C3N)c(CO)nc1Sc1ccnc(N)c1Cl (stereo not given) + C=CC(=O)N1CCN(c2nc(OCC3CCCN3C)nc3c(F)c(-c4nc(N)cc(C)c4C(F)(F)F)c(Cl)cc23)C(C)C1"
  Target Desc: "485176-168-R4-J1-PDC complex spheroid growth"
  Parameter Measured: "viability, T/C"
  Numeric Value: 103
- Compound: "O=C(c1ccc(F)c(F)c1Nc1ccc(I)cc1F)N1CC(O)([C@@H]2CCCCN2)C1 + C#Cc1c(F)ccc2cc(O)cc(-c3ncc4c(N5CC6CCC(C5)N6)nc(OCC56CCCN5CC(F)C6)nc4c3F)c12"
  Target Desc: "485176-168-R4-J1-PDC complex spheroid growth"
  Parameter Measured: "viability, T/C"
  Numeric Value: 49.5
